Assay system MAP kinase-interacting serine/threonine-protein kinase 1 (Homo sapiens, UniProt Q9BUB5); read-out recorded as IC50.
Lab book: enter the figure in µM, no units written.

Give the measured IC50 of CCN1CCN(Cc2ccc(NC(=O)COc3ccc(-c4ccc(NC(C)=O)nc4)cc3)cc2C(F)(F)F)CC1 .
5.68

Also, CCN1CCN(Cc2ccc(NC(=O)COc3ccc(-c4cccnc4)cc3)cc2C(F)(F)F)CC1 please.
0.57

Also, CC(C)C(=O)Nc1ccc(-c2ccc(NCC(=O)Nc3ccc(CN4CCNCC4)c(C(F)(F)F)c3)cc2)cn1 please.
7.7

Also, CCN1CCN(Cc2ccc(NC(=O)CNc3ccc(-c4ccc(NC(=O)C5CC5)nc4)cc3)cc2C(F)(F)F)CC1 please.
2.52

Also, CCN1CCN(Cc2ccc(NC(=O)Cc3ccc(Oc4cc(NC)ncn4)cc3)cc2C(F)(F)F)CC1 please.
3.69

Also, O=C(CNc1ccc(-c2ccc(NC(=O)C3CC3)nc2)cc1)Nc1ccc(CN2CCNCC2)c(C(F)(F)F)c1 please.
0.51

###

- Test summary: Permeability of compound by PAMPA
- Format: ADME
- Details: read-out: permeability
Observation type: Papp
Please don't drop the unit; write it after the number.

Give the measured Papp of O=C(CNc1ccc(-c2ccc(NC(=O)C3CC3)nc2)cc1)Nc1ccc(CN2CCNCC2)c(C(F)(F)F)c1 .
5.53 ×10⁻⁶ cm/s

Also, CCN1CCN(Cc2ccc(NC(=O)CNc3ccc(-c4ccc(NC(=O)C5CC5)nc4)cc3)cc2C(F)(F)F)CC1 please.
34.5 ×10⁻⁶ cm/s

Also, CN1CCN(Cc2ccc(NC(=O)CNc3ccc(-c4ccc(NC(=O)C5CC5)nc4)cc3F)cc2C(F)(F)F)CC1 please.
30.6 ×10⁻⁶ cm/s

Also, CCN1CCN(Cc2ccc(NC(=O)CNc3ccc(-c4ccc(NC(C)=O)nc4)cc3)cc2C(F)(F)F)CC1 please.
26.2 ×10⁻⁶ cm/s

Also, CC(=O)Nc1ccc(-c2ccc(NCC(=O)Nc3ccc(CN4CCNCC4)c(C(F)(F)F)c3)cc2)cn1 please.
1.13 ×10⁻⁶ cm/s

###

- Test system: Platelet-derived growth factor receptor alpha (Homo sapiens)
- Sequence (P16234 whole entry): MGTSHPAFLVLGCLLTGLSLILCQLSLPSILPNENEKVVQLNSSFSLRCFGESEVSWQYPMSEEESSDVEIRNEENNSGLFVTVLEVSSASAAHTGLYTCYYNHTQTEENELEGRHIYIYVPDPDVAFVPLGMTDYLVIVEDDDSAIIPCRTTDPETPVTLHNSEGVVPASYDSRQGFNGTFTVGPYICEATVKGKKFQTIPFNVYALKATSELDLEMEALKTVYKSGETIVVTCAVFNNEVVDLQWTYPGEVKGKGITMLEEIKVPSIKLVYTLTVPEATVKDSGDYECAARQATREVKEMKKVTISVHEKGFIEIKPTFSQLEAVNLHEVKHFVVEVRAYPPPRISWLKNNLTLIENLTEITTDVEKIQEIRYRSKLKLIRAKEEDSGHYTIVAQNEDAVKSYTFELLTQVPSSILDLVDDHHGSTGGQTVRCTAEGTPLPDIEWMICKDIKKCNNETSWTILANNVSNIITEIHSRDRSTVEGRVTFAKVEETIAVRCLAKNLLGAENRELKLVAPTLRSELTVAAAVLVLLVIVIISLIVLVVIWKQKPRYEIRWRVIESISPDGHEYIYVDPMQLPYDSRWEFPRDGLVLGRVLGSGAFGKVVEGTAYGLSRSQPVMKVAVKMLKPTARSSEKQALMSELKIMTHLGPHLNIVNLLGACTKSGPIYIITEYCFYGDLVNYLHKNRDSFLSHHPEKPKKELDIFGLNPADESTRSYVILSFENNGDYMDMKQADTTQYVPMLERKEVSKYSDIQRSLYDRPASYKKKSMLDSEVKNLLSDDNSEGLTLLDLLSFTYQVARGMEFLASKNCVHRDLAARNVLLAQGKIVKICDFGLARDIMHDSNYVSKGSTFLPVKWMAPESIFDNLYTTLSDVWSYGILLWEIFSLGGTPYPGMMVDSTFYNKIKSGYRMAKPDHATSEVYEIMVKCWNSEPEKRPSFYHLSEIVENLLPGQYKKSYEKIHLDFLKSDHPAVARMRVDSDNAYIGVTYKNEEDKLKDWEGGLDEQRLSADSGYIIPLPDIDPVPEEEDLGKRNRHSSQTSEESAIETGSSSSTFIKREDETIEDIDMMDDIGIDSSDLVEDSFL
- Test summary: Inhibition of human recombinant PDGFRalpha expressed in sf21 cells using Poly(Glu:Tyr) as substrate in presence of [gamma32P]ATP
Hi there, I'd appreciate the recorded IC50 for every entry that follows.
Lab book: enter the figure in nM, no units written.

Observed IC50 on Platelet-derived growth factor receptor alpha (Homo sapiens) for CN1CCN(Cc2ccc(NC(=O)CNc3ccc(-c4ccc(NC(=O)C5CC5)nc4)cc3F)cc2C(F)(F)F)CC1 , please.
1280

Also, CCN1CCN(Cc2ccc(NC(=O)CNc3ccc(-c4ccc(NC(=O)C5CC5)nc4)cc3)cc2C(F)(F)F)CC1 please.
672

###

- Test system: MAP kinase-interacting serine/threonine-protein kinase 1/2 (Homo sapiens, UniProt Q9HBH9+Q9BUB5)
- Test summary: Inhibition of MNK1/MNK2 in human HeLa cells assessed as reduction in phosphorylation of eIF4E at Ser209 after 2 hrs by AlphaScreen SureFire assay
- Type: cell-based
Cut-off 300 nM on IC50: below means Yes, at or above means No.

Criterion: IC50 strictly below 300 nM. Is it met by O=C(CNc1ccc(-c2ccc(NC(=O)C3CC3)nc2)cc1)Nc1ccc(CN2CCNCC2)c(C(F)(F)F)c1 ?
No

Also, CCN1CCN(Cc2ccc(NC(=O)COc3ccc(-c4ccc(NC(C)=O)nc4)cc3)cc2C(F)(F)F)CC1 please.
No

Also, CCN1CCN(Cc2ccc(NC(=O)COc3ccc(-c4cccnc4)cc3)cc2C(F)(F)F)CC1 please.
Yes

Also, CC(C)C(=O)Nc1ccc(-c2ccc(NCC(=O)Nc3ccc(CN4CCNCC4)c(C(F)(F)F)c3)cc2)cn1 please.
No

Also, CN1CCN(Cc2ccc(NC(=O)CNc3ccc(-c4ccc(NC(=O)C5CC5)nc4)cc3F)cc2C(F)(F)F)CC1 please.
Yes

Also, CCN1CCN(Cc2ccc(NC(=O)CNc3ccc(-c4ccc(NC(=O)C5CC5)nc4)cc3)cc2C(F)(F)F)CC1 please.
Yes

Also, CC(=O)Nc1ccc(-c2ccc(NCC(=O)Nc3ccc(CN4CCNCC4)c(C(F)(F)F)c3)cc2)cn1 please.
Yes

Also, CCN1CCN(Cc2ccc(NC(=O)CNc3ccc(-c4ccc(NC(C)=O)nc4)cc3)cc2C(F)(F)F)CC1 please.
No

###

- Test summary: Thermodynamic solubility in pH 4 pION buffer at 500 uM incubated for 18 hrs by UV-spectrophotometry
- Type: physicochemical
- Details: read-out: Therm_solubility
Observation type: solubility thermodynamic at 18 h, 500 µM (µg/mL)
Lab book: enter the figure in µg/mL, no units written.

Give the measured solubility thermodynamic at 18 h, 500 µM of CC(=O)Nc1ccc(-c2ccc(NCC(=O)Nc3ccc(CN4CCNCC4)c(C(F)(F)F)c3)cc2)cn1 .
132

Also, CCN1CCN(Cc2ccc(NC(=O)CNc3ccc(-c4ccc(NC(=O)C5CC5)nc4)cc3)cc2C(F)(F)F)CC1 please.
128

Also, O=C(CNc1ccc(-c2ccc(NC(=O)C3CC3)nc2)cc1)Nc1ccc(CN2CCNCC2)c(C(F)(F)F)c1 please.
109

Also, CN1CCN(Cc2ccc(NC(=O)CNc3ccc(-c4ccc(NC(=O)C5CC5)nc4)cc3F)cc2C(F)(F)F)CC1 please.
183

###

- Test system: Receptor-type tyrosine-protein kinase FLT3 (Homo sapiens)
- Sequence (P36888 whole entry): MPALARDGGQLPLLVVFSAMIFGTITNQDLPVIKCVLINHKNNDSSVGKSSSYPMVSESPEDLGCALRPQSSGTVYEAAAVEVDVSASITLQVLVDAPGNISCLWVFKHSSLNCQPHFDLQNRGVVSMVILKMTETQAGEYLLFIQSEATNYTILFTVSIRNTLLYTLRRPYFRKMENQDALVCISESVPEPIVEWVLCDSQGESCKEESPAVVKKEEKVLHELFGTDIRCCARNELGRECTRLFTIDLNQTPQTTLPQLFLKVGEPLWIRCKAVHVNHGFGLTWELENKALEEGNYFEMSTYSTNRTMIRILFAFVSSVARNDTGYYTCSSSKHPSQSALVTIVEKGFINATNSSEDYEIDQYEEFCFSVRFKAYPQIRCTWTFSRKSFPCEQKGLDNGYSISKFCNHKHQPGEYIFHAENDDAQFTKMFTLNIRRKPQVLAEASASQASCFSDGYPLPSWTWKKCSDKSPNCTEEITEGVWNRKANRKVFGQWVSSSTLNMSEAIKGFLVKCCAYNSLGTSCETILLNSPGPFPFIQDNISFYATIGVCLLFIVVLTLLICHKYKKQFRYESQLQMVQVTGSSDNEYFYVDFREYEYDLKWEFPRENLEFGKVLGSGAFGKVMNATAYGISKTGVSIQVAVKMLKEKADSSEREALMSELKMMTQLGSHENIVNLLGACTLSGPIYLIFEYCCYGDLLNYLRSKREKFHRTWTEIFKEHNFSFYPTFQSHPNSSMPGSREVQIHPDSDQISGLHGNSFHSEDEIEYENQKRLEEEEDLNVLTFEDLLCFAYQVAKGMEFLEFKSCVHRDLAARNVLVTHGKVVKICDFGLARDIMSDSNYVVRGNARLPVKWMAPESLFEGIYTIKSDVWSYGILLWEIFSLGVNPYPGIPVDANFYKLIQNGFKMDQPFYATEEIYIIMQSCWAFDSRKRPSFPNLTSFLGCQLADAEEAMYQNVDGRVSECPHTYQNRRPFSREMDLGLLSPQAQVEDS
- Test summary: Inhibition of human recombinant FLT3 expressed in sf21 cells using Poly(Glu:Tyr) as substrate in presence of [gamma32P]ATP
Hi there, I'd appreciate the recorded pIC50 for every entry that follows.
// field semantics: pIC50 = negative decimal log of concentration (mol/L)

Give the measured pIC50 of CN1CCN(Cc2ccc(NC(=O)CNc3ccc(-c4ccc(NC(=O)C5CC5)nc4)cc3F)cc2C(F)(F)F)CC1 .
7.70

Also, CCN1CCN(Cc2ccc(NC(=O)CNc3ccc(-c4ccc(NC(=O)C5CC5)nc4)cc3)cc2C(F)(F)F)CC1 please.
7.70

###

- Test system: Bcr/Abl fusion protein (Homo sapiens)
- Sequence (P00519 whole entry, the tested form may be a part): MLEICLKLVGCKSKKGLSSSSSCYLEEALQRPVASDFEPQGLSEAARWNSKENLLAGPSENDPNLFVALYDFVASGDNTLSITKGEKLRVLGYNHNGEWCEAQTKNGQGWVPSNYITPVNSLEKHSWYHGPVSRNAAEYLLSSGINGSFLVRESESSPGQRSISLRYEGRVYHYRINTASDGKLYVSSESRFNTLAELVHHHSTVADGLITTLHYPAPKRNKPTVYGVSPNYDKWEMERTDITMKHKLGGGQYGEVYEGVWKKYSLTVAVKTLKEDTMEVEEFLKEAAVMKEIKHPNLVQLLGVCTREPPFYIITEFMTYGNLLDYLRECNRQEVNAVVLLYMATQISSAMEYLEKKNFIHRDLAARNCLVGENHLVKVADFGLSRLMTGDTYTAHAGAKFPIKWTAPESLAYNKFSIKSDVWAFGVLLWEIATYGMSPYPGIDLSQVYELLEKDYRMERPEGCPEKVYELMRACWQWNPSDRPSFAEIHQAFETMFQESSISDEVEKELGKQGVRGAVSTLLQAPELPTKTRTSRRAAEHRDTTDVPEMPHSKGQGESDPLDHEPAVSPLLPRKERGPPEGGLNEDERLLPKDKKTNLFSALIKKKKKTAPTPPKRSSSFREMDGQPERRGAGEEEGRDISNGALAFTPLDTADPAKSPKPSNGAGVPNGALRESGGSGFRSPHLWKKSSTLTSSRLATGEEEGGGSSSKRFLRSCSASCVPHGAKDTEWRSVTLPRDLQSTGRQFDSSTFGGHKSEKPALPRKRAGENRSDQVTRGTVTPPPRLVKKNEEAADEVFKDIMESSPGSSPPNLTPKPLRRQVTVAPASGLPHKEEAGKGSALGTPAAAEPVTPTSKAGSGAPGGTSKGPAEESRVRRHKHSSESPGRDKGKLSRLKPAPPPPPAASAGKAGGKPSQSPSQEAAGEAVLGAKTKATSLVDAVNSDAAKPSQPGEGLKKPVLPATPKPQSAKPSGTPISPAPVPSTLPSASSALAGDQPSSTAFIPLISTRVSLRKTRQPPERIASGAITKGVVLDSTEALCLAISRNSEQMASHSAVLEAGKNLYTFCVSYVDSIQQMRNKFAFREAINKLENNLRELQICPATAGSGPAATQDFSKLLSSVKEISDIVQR
- Sequence (P11274 whole entry, further chain, the tested form may be a part): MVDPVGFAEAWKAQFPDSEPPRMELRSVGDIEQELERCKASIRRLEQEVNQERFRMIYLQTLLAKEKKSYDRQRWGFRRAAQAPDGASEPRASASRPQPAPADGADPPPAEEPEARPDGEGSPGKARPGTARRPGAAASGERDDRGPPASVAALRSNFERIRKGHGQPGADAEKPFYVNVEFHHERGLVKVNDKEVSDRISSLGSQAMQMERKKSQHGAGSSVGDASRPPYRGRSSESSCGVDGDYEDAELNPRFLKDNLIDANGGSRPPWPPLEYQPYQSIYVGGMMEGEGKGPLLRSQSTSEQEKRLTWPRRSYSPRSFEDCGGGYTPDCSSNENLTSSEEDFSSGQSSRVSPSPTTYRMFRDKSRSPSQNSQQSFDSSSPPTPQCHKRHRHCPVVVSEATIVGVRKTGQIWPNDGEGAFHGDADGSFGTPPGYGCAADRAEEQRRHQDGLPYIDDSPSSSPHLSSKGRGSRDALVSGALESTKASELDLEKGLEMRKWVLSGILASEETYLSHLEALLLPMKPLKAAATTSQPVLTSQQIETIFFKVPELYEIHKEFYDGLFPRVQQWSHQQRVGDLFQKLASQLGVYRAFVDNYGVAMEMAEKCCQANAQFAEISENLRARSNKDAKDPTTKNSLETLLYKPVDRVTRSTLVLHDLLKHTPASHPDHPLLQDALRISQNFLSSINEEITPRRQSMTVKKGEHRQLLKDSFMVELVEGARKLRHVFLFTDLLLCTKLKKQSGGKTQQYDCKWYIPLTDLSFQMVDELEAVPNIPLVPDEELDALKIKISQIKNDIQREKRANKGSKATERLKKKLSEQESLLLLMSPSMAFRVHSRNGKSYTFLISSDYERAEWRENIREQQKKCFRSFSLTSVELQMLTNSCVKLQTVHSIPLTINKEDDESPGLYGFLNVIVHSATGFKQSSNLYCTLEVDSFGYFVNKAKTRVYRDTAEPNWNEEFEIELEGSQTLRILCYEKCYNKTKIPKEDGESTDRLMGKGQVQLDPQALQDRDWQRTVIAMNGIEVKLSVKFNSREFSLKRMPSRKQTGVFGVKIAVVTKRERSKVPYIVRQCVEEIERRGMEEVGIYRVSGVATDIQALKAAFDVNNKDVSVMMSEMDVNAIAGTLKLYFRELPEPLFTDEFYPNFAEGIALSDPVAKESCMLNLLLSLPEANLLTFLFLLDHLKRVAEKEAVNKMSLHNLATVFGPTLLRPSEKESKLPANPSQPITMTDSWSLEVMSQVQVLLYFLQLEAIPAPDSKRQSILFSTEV
- Test summary: Inhibition of BCR fused full length human recombinant N-terminal His-tagged ABL (2 to 1130 residues) expressed in baculovirus expression system using FL-peptide 2 substrate preincubated for 10 mins followed by substrate addition measured after 60 mins by mobility shift assay
Hi there, I'd appreciate the recorded IC50 for every entry that follows.
Lab book: enter the figure in nM, no units written.

Give the measured IC50 of CCN1CCN(Cc2ccc(NC(=O)CNc3ccc(-c4ccc(NC(C)=O)nc4)cc3)cc2C(F)(F)F)CC1 .
380

Also, CCN1CCN(Cc2ccc(NC(=O)Cc3ccc(Oc4ccncc4)cc3)cc2C(F)(F)F)CC1 please.
3880

Also, CCN1CCN(Cc2ccc(NC(=O)CNc3ccc(-c4ccc(NC(=O)C5CC5)nc4)cc3)cc2C(F)(F)F)CC1 please.
89

###

Assay system MAP kinase-interacting serine/threonine-protein kinase 1 (Homo sapiens, UniProt Q9BUB5); read-out recorded as IC50.

Give the measured IC50 of CN1CCN(Cc2ccc(NC(=O)CNc3ccc(-c4ccc(NC(=O)C5CC5)nc4)cc3F)cc2C(F)(F)F)CC1 .
0.2 µM

Also, CC(=O)Nc1ccc(-c2ccc(NCC(=O)Nc3ccc(CN4CCNCC4)c(C(F)(F)F)c3)cc2)cn1 please.
3.92 µM

Also, CCN1CCN(Cc2ccc(NC(=O)COc3ccc(-c4ccccn4)cc3)cc2C(F)(F)F)CC1 please.
> 10 µM

Also, CCN1CCC(Cc2ccc(NC(=O)COc3ccc(-c4cccnc4)cc3)cc2C(F)(F)F)CC1 please.
> 10 µM

###

- Test system: MAP kinase-interacting serine/threonine-protein kinase 1 (Homo sapiens)
- Test summary: Inhibition of N-terminal GST-tagged MNK1 kinase domain (37 to 341 residues) (unknown origin) expressed in Escherichia coli BL21(DE3) cells using JH3 peptide substrate preincubated for 10 mins followed by substrate addition measured after 60 mins by mobility shift assay
pIC50: −log10 of the molar value.
Hi there, I'd appreciate the recorded pIC50 for every entry that follows.

Give the measured pIC50 of CCN1CCN(Cc2ccc(CC(=O)Nc3ccc(Oc4cc(NC)ncn4)cc3)cc2C(F)(F)F)CC1 .
< 5.00

Also, CCN1CCN(Cc2ccc(NC(=O)COc3ccc(-c4ccncc4)cc3)cc2C(F)(F)F)CC1 please.
< 5.00

Also, CCN1CCN(Cc2ccc(NC(=O)CNc3ccc(-c4ccc(NC(C)=O)nc4)cc3)cc2C(F)(F)F)CC1 please.
5.22

Also, CCN1CCN(Cc2ccc(NC(=O)COc3ccc(-c4ccc(C(=O)NC)nc4)cc3)cc2C(F)(F)F)CC1 please.
< 5.00

###

Assay system UniProt:P10635; read-out recorded as pIC50.
Sequence (P10635 whole entry): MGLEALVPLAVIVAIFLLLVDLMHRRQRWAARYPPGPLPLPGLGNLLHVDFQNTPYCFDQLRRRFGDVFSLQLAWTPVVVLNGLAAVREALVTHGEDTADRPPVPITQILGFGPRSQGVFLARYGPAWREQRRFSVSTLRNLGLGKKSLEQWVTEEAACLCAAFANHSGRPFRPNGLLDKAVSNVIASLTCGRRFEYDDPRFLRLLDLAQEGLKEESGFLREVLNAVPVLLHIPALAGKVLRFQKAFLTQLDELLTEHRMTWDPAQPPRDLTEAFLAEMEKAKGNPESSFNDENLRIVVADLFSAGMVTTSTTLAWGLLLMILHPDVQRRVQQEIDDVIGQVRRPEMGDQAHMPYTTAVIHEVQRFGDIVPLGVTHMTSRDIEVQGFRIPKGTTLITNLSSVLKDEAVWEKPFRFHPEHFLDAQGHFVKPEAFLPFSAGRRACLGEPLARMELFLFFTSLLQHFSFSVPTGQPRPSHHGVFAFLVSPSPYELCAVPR
pIC50: −log10 of the molar value.

Give the measured pIC50 of CN1CCN(Cc2ccc(NC(=O)CNc3ccc(-c4ccc(NC(=O)C5CC5)nc4)cc3F)cc2C(F)(F)F)CC1 .
< 4.52

Also, CCN1CCN(Cc2ccc(NC(=O)CNc3ccc(-c4ccc(NC(C)=O)nc4)cc3)cc2C(F)(F)F)CC1 please.
< 4.70

Also, CC(=O)Nc1ccc(-c2ccc(NCC(=O)Nc3ccc(CN4CCNCC4)c(C(F)(F)F)c3)cc2)cn1 please.
< 4.70

Also, CCN1CCN(Cc2ccc(NC(=O)CNc3ccc(-c4ccc(NC(=O)C5CC5)nc4)cc3)cc2C(F)(F)F)CC1 please.
< 4.52

Also, O=C(CNc1ccc(-c2ccc(NC(=O)C3CC3)nc2)cc1)Nc1ccc(CN2CCNCC2)c(C(F)(F)F)c1 please.
< 4.70
